Every entry's value here was drawn from patent US8486984B2.

Molecular target: human dopamine D3 receptors (Homo sapiens, UniProt P35462)
Sequence (P35462 whole entry): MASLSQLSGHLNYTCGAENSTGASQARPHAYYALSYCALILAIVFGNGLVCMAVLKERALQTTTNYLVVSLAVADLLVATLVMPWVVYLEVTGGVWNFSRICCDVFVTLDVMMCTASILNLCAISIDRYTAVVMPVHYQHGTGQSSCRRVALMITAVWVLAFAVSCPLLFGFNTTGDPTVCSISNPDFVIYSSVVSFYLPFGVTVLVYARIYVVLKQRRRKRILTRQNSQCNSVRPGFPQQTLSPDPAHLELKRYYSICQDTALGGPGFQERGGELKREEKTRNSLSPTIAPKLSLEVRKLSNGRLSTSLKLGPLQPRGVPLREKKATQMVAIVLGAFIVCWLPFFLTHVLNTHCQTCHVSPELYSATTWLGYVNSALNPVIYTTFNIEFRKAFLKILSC
RECORDED_ENDPOINT: Ki (nM)

>  <MOLECULE>
CCCN1CC2CCc3cc(NS(=O)(=O)c4ccc(C(C)C)cc4)ccc3C2C1.Cl (stereo not shown) [Example 14, hydrochloride]

>  <UNIT_TAG>
nM

>  <Ki>
0.5

$$$$
>  <MOLECULE>
CCCN1CC2CCc3cc(NS(=O)(=O)c4ccc(C(C)C(F)(F)F)cc4)ccc3C2C1.Cl (stereo not shown) [Example 15, hydrochloride]

>  <UNIT_TAG>
nM

>  <Ki>
1.8

$$$$
>  <MOLECULE>
C=CCNCC1Cc2cccc(NS(=O)(=O)c3ccc(C(C)C)cc3)c2C1 (stereo not shown)

>  <UNIT_TAG>
nM

>  <Ki>
4.3

$$$$
>  <MOLECULE>
CCCN1CC2CCc3cc(NS(=O)(=O)c4ccc(OC(F)(F)F)cc4)ccc3C2C1.Cl (stereo not shown) [Example 16, hydrochloride]

>  <UNIT_TAG>
nM

>  <Ki>
3.6

$$$$
>  <MOLECULE>
CCCN1CC2CCc3c(cc(Cl)c(NS(=O)(=O)c4ccc(C(C)C)cc4)c3Cl)C2C1.Cl (stereo not shown) [Example 13, hydrochloride]

>  <UNIT_TAG>
nM

>  <Ki>
10.1

$$$$

P: CCCNCC1Cc2cc(NS(=O)(=O)c3ccc(OC(F)(F)F)cc3)ccc2N1 (stereo not shown)
Q: CCCN1CC2CCc3cc(NS(=O)(=O)c4ccc(OC(F)F)cc4)ccc3C2C1.Cl (stereo not shown) [Example 17, hydrochloride]
Problem: Field: entry with larger Ki (options P / Q ). Returns: label corresponding to the selected item.
Result: P

----------
Target: human dopamine D3 receptors (Homo sapiens, UniProt P35462)
Construct: expressed in transfected cells; membranes)
Experiment: Dopamine D3 receptor binding, [125I]-iodosulpride displacement
Details: selectivity, ratio of receptor binding constants D2/D3
RECORDED_ENDPOINT: Ki(D2)*/Ki(D3)*

>  <MOLECULE>
CCCNCC1Cc2cc(NS(=O)(=O)c3ccc(C(C)C)cc3)ccc2N1 (stereo not drawn)

>  <Ki(D2)*/Ki(D3)*>
55

$$$$
>  <MOLECULE>
CCCN1CCC2c3ccc(NS(=O)(=O)c4ccc(C(C)C)cc4)cc3NC2C1 (stereo not drawn)

>  <Ki(D2)*/Ki(D3)*>
26

$$$$

A: CCCNCC1Cc2cc(NS(=O)(=O)c3ccc(OC(F)(F)F)cc3)ccc2N1 (stereo not drawn)
B: CCCNCC1CCCc2cc(NS(=O)(=O)c3ccc(C(C)C)cc3)ccc21 (stereo not drawn)
C: CCCN1CC2CCc3cc(NS(=O)(=O)c4ccc(C(C)C)cc4)ccc3C2C1.Cl (stereo not drawn)
D: CCCN1CC2CCc3c(cc(Cl)c(NS(=O)(=O)c4ccc(C(C)C)cc4)c3Cl)C2C1.Cl (stereo not drawn)
Problem: Arrange these molecules by their Ki(D2)*/Ki(D3)*, starting with the largest number. Reply format: the labels, ordered as requested.
Result: A, B, C, D
(A: 120, B: 69, C: 28, D: 5)

----------
Target: human dopamine D3 receptors (Homo sapiens)
Construct: expressed in transfected cells; membranes)
Assay: Dopamine D3 receptor binding, [125I]-iodosulpride displacement
Conditions: selectivity, ratio of receptor binding constants D2/D3
RECORDED_ENDPOINT: Ki(D2)*/Ki(D3)*

These solved cases illustrate the format of a correct answer.
>  <COMPOUND>
CCCNCc1cc2cc(NS(=O)(=O)c3ccc(C(C)C)cc3)ccc2[nH]1

>  <MEASURED_NUMBER>
39

$$$$
>  <COMPOUND>
CCCN1CC2CCc3cc(NS(=O)(=O)c4ccc(C(C)C(F)(F)F)cc4)ccc3C2C1.Cl (centres unmarked)

>  <MEASURED_NUMBER>
36

$$$$
>  <COMPOUND>
C=CCNCC1Cc2cccc(NS(=O)(=O)c3ccc(C(C)C)cc3)c2C1 (centres unmarked)

>  <MEASURED_NUMBER>
54

$$$$
>  <COMPOUND>
CCCNCC1Cc2ccc(NS(=O)(=O)c3ccc(C(C)C)cc3)cc2C1 (centres unmarked)

>  <MEASURED_NUMBER>
54

$$$$
>  <COMPOUND>
CCCN1CC2CCc3cc(NS(=O)(=O)c4ccc(OC(F)F)cc4)ccc3C2C1.Cl (centres unmarked)

>  <MEASURED_NUMBER>
19

$$$$

P: CCCN1CC2CCc3cc(NS(=O)(=O)c4ccc(OC(F)(F)F)cc4)ccc3C2C1.Cl (centres unmarked)
Q: CCCNCc1cc2cc(NS(=O)(=O)c3ccc(OC(F)(F)F)cc3)ccc2[nH]1
R: CCCNCC1CCc2cc(NS(=O)(=O)c3ccc(C(C)C)cc3)ccc21 (centres unmarked)
Problem: Order by Ki(D2)*/Ki(D3)*, ascending. Provide your answer as the labels ordered per the instruction.
Result: Q, R, P

----------
Target: human dopamine D2L receptors (long isoform) (Homo sapiens, UniProt P14416)
Construct: membranes)
Sequence (P14416 whole entry, canonical isoform): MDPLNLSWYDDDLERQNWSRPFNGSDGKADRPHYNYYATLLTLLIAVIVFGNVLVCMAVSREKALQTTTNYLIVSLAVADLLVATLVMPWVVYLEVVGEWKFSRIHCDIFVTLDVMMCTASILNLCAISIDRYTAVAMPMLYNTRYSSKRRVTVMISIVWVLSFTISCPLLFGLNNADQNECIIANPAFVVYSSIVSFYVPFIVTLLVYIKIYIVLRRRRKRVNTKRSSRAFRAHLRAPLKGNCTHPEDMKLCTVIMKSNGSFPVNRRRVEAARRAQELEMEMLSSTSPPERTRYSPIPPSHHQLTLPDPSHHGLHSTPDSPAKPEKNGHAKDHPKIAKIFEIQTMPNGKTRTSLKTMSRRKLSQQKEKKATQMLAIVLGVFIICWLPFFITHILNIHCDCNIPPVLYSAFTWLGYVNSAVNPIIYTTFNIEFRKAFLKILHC
Assay: Dopamine D2L receptor binding, [125I] iodospiperone displacement
Settings: membranes from HEK-293 cells stably expressing receptor; 0.01 nM [125I] iodospiperone; 25° C., 60 minutes; read-out: Ki(D2)*
pKi: −log10 of the molar value.
RECORDED_ENDPOINT: pKi

>  <COMPOUND>
CCCNCC1CCCc2cc(NS(=O)(=O)c3ccc(C(C)C)cc3)ccc21 (stereo not drawn)

>  <pKi>
6.92

$$$$

I: CCCNCC1Cc2ccc(NS(=O)(=O)c3ccc(C(C)C)cc3)cc2C1 (stereo not drawn)
II: CCCNCc1cc2cc(NS(=O)(=O)c3ccc(C(C)C)cc3)ccc2[nH]1
Problem: In the pair I and II , the larger recorded pKi belongs to which? Reply briefly: the label of your chosen item.
Result: II

----------
Target: human dopamine D2L receptors (long isoform) (Homo sapiens, UniProt P14416)
Construct: membranes)
Assay: Dopamine D2L receptor binding, [125I] iodospiperone displacement
Conditions: membranes from HEK-293 cells stably expressing receptor; 0.01 nM [125I] iodospiperone; 25° C., 60 minutes; read-out: Ki(D2)*
pKi: −log10 of the molar value.
RECORDED_ENDPOINT: pKi

>  <COMPOUND>
CCCN1CCC2c3ccc(NS(=O)(=O)c4ccc(C(C)C)cc4)cc3NC2C1 (stereo not drawn)

>  <pKi>
6.86

$$$$
>  <COMPOUND>
CCCNCC1CCc2cc(NS(=O)(=O)c3ccc(C(C)C)cc3)ccc21 (stereo not drawn)

>  <pKi>
7.23

$$$$
>  <COMPOUND>
C=CCNCC1Cc2cccc(NS(=O)(=O)c3ccc(C(C)C)cc3)c2C1 (stereo not drawn)

>  <pKi>
6.63

$$$$
>  <COMPOUND>
CCCNCC1Cc2cc(NS(=O)(=O)c3ccc(C(C)C)cc3)ccc2N1 (stereo not drawn)

>  <pKi>
6.29

$$$$

1: CCCNCC1Cc2cc(NS(=O)(=O)c3ccc(OC(F)(F)F)cc3)ccc2N1 (stereo not drawn)
2: CCCNCc1cc2cc(NS(=O)(=O)c3ccc(OC(F)(F)F)cc3)ccc2[nH]1
Problem: For this pair, 1 and 2 , which shows a numerically higher pKi? The response must carry the label of the picked entry.
Result: 2
(2: 7.26, 1: 5.12)
